protocol: physchem
condition label: solubility in ethanol
readout type: solubility (µg/mL)
Report only the number, with the unit µg/mL understood.

IN: solubility for CCCCCCCCCC(=O)N[C@@H](Cc1c[nH]c2ccccc12)C(=O)N[C@H](CC(N)=O)C(=O)N[C@@H](CC(=O)O)C(=O)N[C@@H]1C(=O)NCC(=O)N[C@@H](CCCN)C(=O)N[C@@H](CC(=O)O)C(=O)N[C@H](C)C(=O)N[C@@H](CC(=O)O)C(=O)NCC(=O)N[C@H](CO)C(=O)N[C@@H]([C@H](C)CC(=O)O)C(=O)N[C@@H](CC(=O)c2ccccc2N)C(=O)O[C@@H]1C ?
OUT: 2800
